Assay: The drug is tested on Coprococcus comes strain: ATCC27758 for biotransformation. The drug concentrations were measured before and after a 12-h incubation by liquid-chromatography-coupled mass spectrometry (LC–MS)
Assay type: ADME
Parameters: dose 2 uM, timepoint 0 vs 12 hours
Conditions: 2 µM
Measured endpoint: Bacterial Biotransformation

The cases that follow already have their Bacterial Biotransformation on record.
{"Molecule": "CCN(CC)CCOC(=O)C(Cc1cccc2ccccc12)CC1CCCO1.O=C(O)C(=O)O (stereo not given) [NAFRONYL OXALATE]", "Bacterial Biotransformation": "Compound NOT metabolized"}
{"Molecule": "O=C(NCc1ccccc1)OCCO [BURAMATE]", "Bacterial Biotransformation": "Compound NOT metabolized"}
{"Molecule": "CCOC(=O)C1=C[C@]2(CC)CCCN3CCc4c(n1c1ccccc41)[C@@H]32 [VINPOCETINE]", "Bacterial Biotransformation": "Compound NOT metabolized"}
{"Molecule": "CCN(CC)C(=O)/C(C#N)=C/c1cc(O)c(O)c([N+](=O)[O-])c1 [ENTACAPONE]", "Bacterial Biotransformation": "Compound metabolized"}
{"Molecule": "Br.CN1CCC[C@@H]1Cc1c[nH]c2ccc(CCS(=O)(=O)c3ccccc3)cc12 [ELETRIPTAN HYDROBROMIDE]", "Bacterial Biotransformation": "Compound NOT metabolized"}
{"Molecule": "CCCN(CCC)CCc1cccc2c1CC(=O)N2 [ROPINIROLE]", "Bacterial Biotransformation": "Compound NOT metabolized"}
{"Molecule": "COc1cc2nc(N3CCN(C(=O)C4CCCO4)CC3)nc(N)c2cc1OC (stereo not given) [TERAZOSIN]", "Bacterial Biotransformation": "Compound NOT metabolized"}
{"Molecule": "O=C(O)CCc1nc(-c2ccccc2)c(-c2ccccc2)o1 [OXAPROZIN]", "Bacterial Biotransformation": "Compound NOT metabolized"}
{"Molecule": "COc1c2occc2cc2ccc(=O)oc12 [METHOXSALEN]", "Bacterial Biotransformation": "Compound metabolized"}
{"Molecule": "CC(C)(C)NCC(O)c1cc(Cl)c(N)c(Cl)c1 (stereo not given) [CLENBUTEROL]", "Bacterial Biotransformation": "Compound NOT metabolized"}

Fill blank: measured Bacterial Biotransformation of the molecule C[C@H]1O[C@@H](O[C@H]2[C@@H](O)C[C@H](O[C@H]3[C@@H](O)C[C@H](O[C@H]4CC[C@@]5(C)[C@H](CC[C@@H]6[C@@H]5C[C@@H](O)[C@]5(C)[C@@H](C7=CC(=O)OC7)CC[C@]65O)C4)O[C@@H]3C)O[C@@H]2C)C[C@H](O)[C@@H]1O [DIGOXIN] is ____.
Compound NOT metabolized

Given NC(=O)N1c2ccccc2CC(=O)c2ccccc21 [OXCARBAZEPINE] , state its recorded Bacterial Biotransformation.
Compound NOT metabolized

Could you share which Bacterial Biotransformation value was measured for CC[C@@]1(O)C(=O)OCc2c1cc1n(c2=O)Cc2cc3c(CN(C)C)c(O)ccc3nc2-1 [TOPOTECAN] ?
Compound NOT metabolized

Given CN1CCN(C2=Nc3ccccc3Oc3ccc(Cl)cc32)CC1.O=C(O)CCC(=O)O [LOXAPINE SUCCINATE] , state its recorded Bacterial Biotransformation.
Compound NOT metabolized

----------
Conditions: limosilactobacillus reuteri cf48-3a, 12 h, 2 µM
Description: The drug is tested on Lactobacillus reuteri CF48-3A strain: BEI HM-102 for biotransformation. The drug concentrations were measured before and after a 12-h incubation by liquid-chromatography-coupled mass spectrometry (LC–MS)
Measured endpoint: Bacterial Biotransformation

{"Compound": "CN1CCC(OC(c2ccccc2)c2ccccc2)CC1", "Val": "Compound NOT metabolized"}
{"Compound": "CN1CCN(C2=Nc3ccccc3Oc3ccc(Cl)cc32)CC1.O=C(O)CCC(=O)O [LOXAPINE SUCCINATE]", "Val": "Compound NOT metabolized"}
{"Compound": "Nc1nc2ccc(OC(F)(F)F)cc2s1", "Val": "Compound NOT metabolized"}
{"Compound": "CC(C)[C@H]1CC[C@H](C(=O)N[C@H](Cc2ccccc2)C(=O)O)CC1 [NATEGLINIDE]", "Val": "Compound NOT metabolized"}
{"Compound": "CCc1nc(N)nc(N)c1-c1ccc(Cl)cc1", "Val": "Compound NOT metabolized"}
{"Compound": "CC(=O)O[C@]1(C(C)=O)CC[C@H]2[C@@H]3C=C(Cl)C4=CC(=O)[C@@H]5C[C@@H]5[C@]4(C)[C@H]3CC[C@@]21C [CYPROTERONE ACETATE]", "Val": "Compound NOT metabolized"}

# evaluate next
If you can, please state the reported Bacterial Biotransformation value of CCCN1C[C@H](CSC)C[C@@H]2c3cccc4[nH]cc(c34)C[C@H]21.CS(=O)(=O)O [PERGOLIDE MESYLATE] .
Compound NOT metabolized

----------
Assay: The drug is tested on Odoribacter splanchnicus strain: fecal isolate for biotransformation. The drug concentrations were measured before and after a 12-h incubation by liquid-chromatography-coupled mass spectrometry (LC–MS)
Conditions: 2 µM
Measured endpoint: Bacterial Biotransformation

Sample records with Bacterial Biotransformation:
{"Compound": "O=c1[nH]c2ccccc2n1C1CCN(CCCC(c2ccc(F)cc2)c2ccc(F)cc2)CC1 [PIMOZIDE]", "Measured endpoint": "Bacterial Biotransformation", "Val": "Compound NOT metabolized"}
{"Compound": "CCOC(=O)[C@H](CCc1ccccc1)N[C@@H](C)C(=O)N1Cc2ccccc2C[C@H]1C(=O)O", "Measured endpoint": "Bacterial Biotransformation", "Val": "Compound metabolized"}
{"Compound": "COCCc1ccc(OCC(O)CNC(C)C)cc1.COCCc1ccc(OCC(O)CNC(C)C)cc1.O=C(O)C(O)C(O)C(=O)O (centres undefined) [METOPROLOL TARTRATE]", "Measured endpoint": "Bacterial Biotransformation", "Val": "Compound NOT metabolized"}
{"Compound": "CCN(CC)C(=O)/C(C#N)=C/c1cc(O)c(O)c([N+](=O)[O-])c1 [ENTACAPONE]", "Measured endpoint": "Bacterial Biotransformation", "Val": "Compound metabolized"}
{"Compound": "Br.CN1CCC[C@@H]1Cc1c[nH]c2ccc(CCS(=O)(=O)c3ccccc3)cc12 [ELETRIPTAN HYDROBROMIDE]", "Measured endpoint": "Bacterial Biotransformation", "Val": "Compound NOT metabolized"}
{"Compound": "Fc1ccc([C@@H]2CCNC[C@H]2COc2ccc3c(c2)OCO3)cc1 [PAROXETINE]", "Measured endpoint": "Bacterial Biotransformation", "Val": "Compound NOT metabolized"}
{"Compound": "CC(C)(C)NCC(O)c1cc(Cl)c(N)c(Cl)c1 (centres undefined) [CLENBUTEROL]", "Measured endpoint": "Bacterial Biotransformation", "Val": "Compound NOT metabolized"}
{"Compound": "c1ccc([C@H]2CN3CCSC3=N2)cc1 [LEVAMISOLE]", "Measured endpoint": "Bacterial Biotransformation", "Val": "Compound metabolized"}

// next entry
Returns the measured Bacterial Biotransformation for the input compound. Input: CCOc1cc(CC(=O)N[C@@H](CC(C)C)c2ccccc2N2CCCCC2)ccc1C(=O)O [REPAGLINIDE]
Compound NOT metabolized

----------
Test: The drug is tested on Odoribacter splanchnicus strain: fecal isolate for biotransformation. The drug concentrations were measured before and after a 12-h incubation by liquid-chromatography-coupled mass spectrometry (LC–MS)
Conditions: 2 µM

{"Molecule": "CN1CCN(CC/C=C2/c3ccccc3Sc3ccc(S(=O)(=O)N(C)C)cc32)CC1", "Bacterial Biotransformation": "Compound metabolized"}
{"Molecule": "COc1ccccc1OCC(O)CN1CCN(CC(=O)Nc2c(C)cccc2C)CC1 (centres undefined)", "Bacterial Biotransformation": "Compound NOT metabolized"}
{"Molecule": "CC(=O)OCC(=O)[C@@]1(OC(C)=O)[C@@H](C)C[C@H]2[C@@H]3C[C@H](F)C4=CC(=O)C=C[C@]4(C)[C@@]3(F)[C@@H](O)C[C@@]21C [DIFLORASONE DIACETATE]", "Bacterial Biotransformation": "Compound metabolized"}
{"Molecule": "COC(=O)C1=C(C)NC(C)=C(C(=O)OC(C)C)C1c1cccc2nonc12 (centres undefined)", "Bacterial Biotransformation": "Compound NOT metabolized"}

----------
Assay: The drug is tested on Ruminococcus torques strain: ATCC27756 for biotransformation. The drug concentrations were measured before and after a 12-h incubation by liquid-chromatography-coupled mass spectrometry (LC–MS)
Assay type: ADME
Design: dose 2 uM, timepoint 0 vs 12 hours
Details: 2 µM

{"Structure as smiles": "CCCCCOC(=O)Nc1nc(=O)n([C@@H]2O[C@H](C)[C@@H](O)[C@H]2O)cc1F", "Bacterial Biotransformation": "Compound NOT metabolized"}
{"Structure as smiles": "CC(C)(C)N.CCC[C@H](N[C@@H](C)C(=O)N1[C@H](C(=O)O)C[C@@H]2CCCC[C@@H]21)C(=O)OCC", "Bacterial Biotransformation": "Compound NOT metabolized"}
{"Structure as smiles": "OCCN(CCO)c1nc(N2CCCCC2)c2nc(N(CCO)CCO)nc(N3CCCCC3)c2n1", "Bacterial Biotransformation": "Compound NOT metabolized"}
